Target: Adenosine receptor A3 (Homo sapiens)
Sequence (P0DMS8 whole entry): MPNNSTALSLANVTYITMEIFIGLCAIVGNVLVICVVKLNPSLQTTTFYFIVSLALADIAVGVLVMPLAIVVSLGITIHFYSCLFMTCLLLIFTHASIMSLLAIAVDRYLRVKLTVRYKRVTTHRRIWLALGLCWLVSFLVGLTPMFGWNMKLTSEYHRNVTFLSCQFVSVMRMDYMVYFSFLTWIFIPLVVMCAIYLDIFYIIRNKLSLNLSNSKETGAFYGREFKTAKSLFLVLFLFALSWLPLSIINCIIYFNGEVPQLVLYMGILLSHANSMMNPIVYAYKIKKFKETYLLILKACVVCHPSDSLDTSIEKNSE
From various publications: Ki for Adenosine receptor A3 (Homo sapiens).
Report as a plain number; the unit nM is understood.

Look at this molecule and give its reported Ki. COc1ccc(CNc2ncc(C(=O)O)c3nc(-c4ccco4)nn23)cc1OC
159

Try the molecule CNc1nc(-c2cn(Cc3cccc(OC)c3)nn2)nc2c1ncn2[C@@H]1O[C@H](CO)[C@@H](O)[C@H]1O
86.1

Field entry: COc1cc(O)c2c(c1)OC(c1ccc(O)cc1)CC2=O (centres undefined)
3400

Same thing, different molecule: O=C(NC(=O)c1ccccc1)Nc1nc2ccccc2n2c(=O)n(-c3ccccc3)nc12
1300

And C[C@@H](Sc1ccccc1)C(=O)Nc1nnc(-c2ccccc2)[nH]1 ?
1900

Follow-up entry: OC[C@@]12C[C@@H]1[C@@H](n1cnc3c(NCc4cccc(I)c4)nc(Cl)nc31)[C@H](O)[C@@H]2O
1.9

Consider next the molecule Nc1ncnc2c1nc(Br)n2C1CCCC1 in the same way.
4200

// query: Nc1nc(Cl)nc2c1ncn2[C@H]1[C@H](O)[C@H](O)[C@]2(CO)C[C@H]12
84.7

What would you report for C=CCN1C(=O)N2C[C@H](C)N=C2c2[nH]c(-c3cc(C)nn3C)nc21 ?
6.03

CNC(=O)[C@@]12C[C@@H]1[C@@H](n1cnc3c(NCc4cccc(Cl)c4)nc(N=[N+]=[N-])nc31)[C@H](O)[C@@H]2O ?
1.08

Next: COc1ccc(-n2cc3c(n2)c(N)nc2ccccc23)cc1
90.2

Ok, now CNC(=O)[C@H]1O[C@@H](n2cnc3c(NCc4cc(Cl)ccc4OCc4cc(C)no4)ncnc32)[C@H](O)[C@@H]1O
1.6

What do you have for c1ccc(CNc2nc(NC3CCCCC3)n3nc(-c4ccco4)nc3n2)cc1 ?
455

Try C=CCN1C(=O)N2C[C@@H](C)N=C2c2[nH]c(-c3cc(C)nn3C)nc21 next.
5.04
